Target: androgen receptor (AR) (Homo sapiens)
Sequence (P10275 1-920): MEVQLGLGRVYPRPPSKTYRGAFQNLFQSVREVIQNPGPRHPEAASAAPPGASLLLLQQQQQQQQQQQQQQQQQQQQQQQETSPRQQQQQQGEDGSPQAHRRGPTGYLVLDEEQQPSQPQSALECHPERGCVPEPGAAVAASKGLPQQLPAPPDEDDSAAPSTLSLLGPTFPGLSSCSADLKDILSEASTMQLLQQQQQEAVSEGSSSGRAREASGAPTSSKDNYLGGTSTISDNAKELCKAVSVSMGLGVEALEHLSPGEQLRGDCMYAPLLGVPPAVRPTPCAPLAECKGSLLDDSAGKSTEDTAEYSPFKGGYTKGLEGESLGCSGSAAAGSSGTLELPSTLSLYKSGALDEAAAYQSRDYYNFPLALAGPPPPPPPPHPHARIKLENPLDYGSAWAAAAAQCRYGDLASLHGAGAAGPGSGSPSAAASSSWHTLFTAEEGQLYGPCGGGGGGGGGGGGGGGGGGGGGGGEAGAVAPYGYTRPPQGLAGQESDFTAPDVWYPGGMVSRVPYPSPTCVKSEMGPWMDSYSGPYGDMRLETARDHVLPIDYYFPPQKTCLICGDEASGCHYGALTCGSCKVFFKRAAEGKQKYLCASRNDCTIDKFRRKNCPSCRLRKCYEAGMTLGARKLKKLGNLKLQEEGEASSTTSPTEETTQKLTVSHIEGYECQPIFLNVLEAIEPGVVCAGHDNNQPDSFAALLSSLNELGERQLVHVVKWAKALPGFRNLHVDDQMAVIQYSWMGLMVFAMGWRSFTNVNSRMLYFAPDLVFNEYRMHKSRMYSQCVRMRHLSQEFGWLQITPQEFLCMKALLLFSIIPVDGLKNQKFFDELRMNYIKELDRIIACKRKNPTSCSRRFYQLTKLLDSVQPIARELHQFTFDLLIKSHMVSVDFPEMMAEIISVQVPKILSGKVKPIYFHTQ
Test: Degradation of androgen receptor (AR) protein in VCaP cells by ELISA
Format: cell-based
Conditions: percentage of degraded AR at 100 nM, VCaP cells, 16 h, ELISA; read-out: % degradation
Observable: inhibition at 0.1 µM

INSERT INTO assay_data (compound, study_system, observable, result) VALUES
  ('Cc1ncsc1-c1ccc([C@H](C)NC(=O)[C@@H]2C[C@@H](O)CN2C(=O)[C@@H](NC(=O)CCn2cc(C#Cc3ccc4c(c3)CN([C@H]3C(C)(C)[C@H](Oc5ccc(C#N)c(Cl)c5)C3(C)C)C4=O)cn2)C(C)(C)C)cc1', 'androgen receptor (AR) (Homo sapiens)', 'inhibition at 0.1 µM', '50 to 79%');

I need inhibition at 0.1 µM for every entry listed below, if you could help.
1. CC1(C)[C@H](NC(=O)c2ccc(N3CCC(CN4CCN(c5cc6c(cc5F)C(=O)N(C5CCC(=O)NC5=O)C6)CC4)CC3)nc2)C(C)(C)[C@H]1Oc1ccc(C#N)c(Cl)c1 (stereo partly drawn)
2. N#Cc1ccc(O[C@H]2CC[C@H](N3Cc4nc(N5CCC(OC6CCN(c7cccc8c7C(=O)N(C7CCC(=O)NC7=O)C8=O)CC6)CC5)ccc4C3=O)CC2)cc1Cl (stereo partly drawn)
3. Cc1ncsc1-c1ccc([C@H](C)NC(=O)C2C[C@@H](O)CN2C(=O)[C@@H](NC(=O)COCCN2CCN(c3ccc4c(c3)CN([C@H]3C(C)(C)[C@H](Oc5ccc(C#N)c(Cl)c5)C3(C)C)C4=O)CC2)C(C)(C)C)cc1 (stereo partly drawn)
4. N#Cc1ccc(O[C@H]2CC[C@H](N3Cc4nc(N5CCC(CN6CCN(c7ccc8c(c7)C(=O)N(C7CCC(=O)NC7=O)C8=O)CC6)CC5)ccc4C3=O)CC2)cc1Cl (stereo partly drawn)
5. CC(=O)O[C@@H]1C[C@@H](C(=O)N[C@@H](CO)c2ccc(-c3scnc3C)cc2)N(C(=O)[C@@H](NC(=O)COCCCCC#Cc2ccc3c(c2)CN([C@H]2C(C)(C)[C@H](Oc4ccc(C#N)c(Cl)c4)C2(C)C)C3=O)C(C)(C)C)C1
6. [2H]C([2H])([2H])N(C(=O)c1ccc(C#CCCCCOCC(=O)N[C@H](C(=O)N2C[C@H](O)C[C@H]2C(=O)N[C@@H](C)c2ccc(-c3scnc3C)cc2)C(C)(C)C)nc1)[C@H]1C(C)(C)[C@H](Oc2ccc(C#N)c(Cl)c2)C1(C)C
7. Cc1ncsc1-c1ccc([C@H](C)NC(=O)[C@@H]2C[C@@H](O)CN2C(=O)[C@@H](NC(=O)COC2CN(CCC#Cc3ccc4c(c3)CN([C@H]3C(C)(C)[C@H](Oc5ccc(C#N)c(Cl)c5)C3(C)C)C4=O)C2)C(C)(C)C)cc1
8. CC(=O)O[C@@H]1C[C@@H](C(=O)N[C@@H](C)c2ccc(-c3scnc3C)cc2)N(C(=O)[C@@H](NC(=O)COCC(C)OCC#Cc2ccc3c(c2)CN([C@H]2C(C)(C)[C@H](Oc4ccc(C#N)c(Cl)c4)C2(C)C)C3=O)C(C)(C)C)C1 (stereo partly drawn)

stdout:
["25 to 49%", "< 25%", "50 to 79%", "50 to 79%", "25 to 49%", "0%", "50 to 79%", "50 to 79%"]

====

Target: androgen receptor (AR) (Homo sapiens, UniProt P10275)
Test: Degradation of androgen receptor (AR) protein in VCaP cells by ELISA
Type: cell-based
Conditions: percentage of degraded AR at 100 nM, VCaP cells, 16 h, ELISA; read-out: % degradation
Observable: inhibition at 0.1 µM

INSERT INTO measurements (compound, result) VALUES
  ('[2H]C([2H])([2H])N(C(=O)c1ccc(C#CCCCCCOCC(=O)N[C@H](C(=O)N2C[C@H](O)C[C@H]2C(=O)N[C@@H](C)c2ccc(-c3scnc3C)cc2)C(C)(C)C)cc1)[C@H]1C(C)(C)[C@H](Oc2ccc(C#N)c(Cl)c2)C1(C)C [Compound 24]', '50 to 79%'),
  ('Cc1ncsc1-c1ccc([C@H](C)NC(=O)[C@@H]2C[C@@H](O)CN2C(=O)[C@@H](NC(=O)COCCCCCNc2ccc3c(c2)C(=O)N([C@H]2C(C)(C)[C@H](Oc4ccc(C#N)c(Cl)c4)C2(C)C)C3)C(C)(C)C)cc1 [Compound 7]', '50 to 79%');

stdin: I have this compound here, [2H]C([2H])([2H])N(C(=O)c1ccc(C#CCCOCC(=O)N[C@H](C(=O)N2C[C@H](O)C[C@H]2C(=O)N[C@@H](C)c2ccc(-c3scnc3C)cc2)C(C)(C)C)cc1)[C@H]1C(C)(C)[C@H](Oc2ccc(C#N)c(Cl)c2)C1(C)C [Compound 26] , and I need its recorded inhibition at 0.1 µM.
stdout: < 25%

====

Biological target: androgen receptor (AR) (Homo sapiens)
Sequence (P10275 1-920): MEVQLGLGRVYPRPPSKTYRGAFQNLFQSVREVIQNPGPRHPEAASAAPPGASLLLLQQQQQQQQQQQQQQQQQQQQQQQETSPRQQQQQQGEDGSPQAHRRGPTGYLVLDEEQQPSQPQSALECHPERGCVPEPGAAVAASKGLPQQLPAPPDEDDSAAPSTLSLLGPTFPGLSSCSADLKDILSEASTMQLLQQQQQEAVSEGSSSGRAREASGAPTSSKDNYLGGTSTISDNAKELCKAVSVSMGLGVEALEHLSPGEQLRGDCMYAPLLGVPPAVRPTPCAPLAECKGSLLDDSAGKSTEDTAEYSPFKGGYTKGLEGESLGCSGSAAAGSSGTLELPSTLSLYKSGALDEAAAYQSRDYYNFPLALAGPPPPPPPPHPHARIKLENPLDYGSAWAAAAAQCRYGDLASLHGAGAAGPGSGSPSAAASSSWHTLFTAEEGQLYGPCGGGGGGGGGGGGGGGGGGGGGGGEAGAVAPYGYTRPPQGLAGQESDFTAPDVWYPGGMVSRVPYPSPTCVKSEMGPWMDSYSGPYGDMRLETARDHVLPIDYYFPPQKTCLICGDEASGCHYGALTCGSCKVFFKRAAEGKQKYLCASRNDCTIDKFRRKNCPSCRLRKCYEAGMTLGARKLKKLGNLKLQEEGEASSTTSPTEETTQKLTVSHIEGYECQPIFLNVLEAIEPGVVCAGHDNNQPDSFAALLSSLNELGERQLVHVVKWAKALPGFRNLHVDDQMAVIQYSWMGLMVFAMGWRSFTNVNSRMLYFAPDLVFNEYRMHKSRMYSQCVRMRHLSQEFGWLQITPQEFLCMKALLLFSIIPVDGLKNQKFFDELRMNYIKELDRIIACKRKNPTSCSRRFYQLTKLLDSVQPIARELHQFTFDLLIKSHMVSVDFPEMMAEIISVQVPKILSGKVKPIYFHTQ
Assay: Degradation of androgen receptor (AR) protein in VCaP cells by ELISA
Type: cell-based
Conditions: percentage of degraded AR at 100 nM, VCaP cells, 16 h, ELISA; read-out: % degradation
Give measured inhibition at 0.1 µM for each item. Keep answers brief.

INSERT INTO assay_data (molecule, result) VALUES
  ('[2H]C([2H])([2H])N(C(=O)c1ccc(C#CCCCCOCC(=O)N[C@H](C(=O)N2C[C@H](O)C[C@H]2C(=O)N[C@@H](C)c2ccc(-c3scnc3C)cc2)C(C)(C)C)cc1)[C@H]1C(C)(C)[C@H](Oc2ccc(C#N)c(Cl)c2)C1(C)C', '25 to 49%');

I need inhibition at 0.1 µM for every entry listed below, if you could help.
1. Cc1ncsc1-c1ccc([C@H](C)NC(=O)[C@@H]2C[C@@H](O)CN2C(=O)[C@@H](NC(=O)CN2CC(CC#Cc3ccc4c(c3)CN([C@H]3C(C)(C)[C@H](Oc5ccc(C#N)c(Cl)c5)C3(C)C)C4=O)C2)C(C)(C)C)cc1
2. N#Cc1ccc(O[C@H]2CC[C@H](N3Cc4nc(N5CC[C@@H](CN6CCN(c7cc8c(cc7F)CN(C7CCC(=O)NC7=O)C8=O)CC6)C5)ccc4C3=O)CC2)cc1Cl (some centres unmarked)
3. Cc1ncsc1-c1ccc([C@H](CO)NC(=O)[C@@H]2C[C@@H](O)CN2C(=O)[C@@H](NC(=O)COCCCCC#Cc2ccc3c(c2)CN([C@H]2C(C)(C)[C@H](Oc4ccc(C#N)c(Cl)c4)C2(C)C)C3=O)C(C)(C)C)cc1
4. N#Cc1ccc(O[C@H]2CC[C@H](N3Cc4nc(N5CCC(CN6CCN(c7cccc8c7C(=O)N(C7CCC(=O)NC7=O)C8=O)CC6)CC5)ccc4C3=O)CC2)cc1Cl (some centres unmarked)
5. Cc1ncsc1-c1ccc([C@H](C)NC(=O)[C@@H]2C[C@@H](O)CN2C(=O)[C@@H](NC(=O)COCC(C)OCC#Cc2ccc3c(c2)CN([C@H]2C(C)(C)[C@H](Oc4ccc(C#N)c(Cl)c4)C2(C)C)C3=O)C(C)(C)C)cc1 (some centres unmarked)
6. [2H]C([2H])([2H])N(C(=O)c1ccc(C#CCCCOCC(=O)N[C@H](C(=O)N2C[C@H](O)C[C@H]2C(=O)N[C@@H](C)c2ccc(-c3scnc3C)cc2)C(C)(C)C)cc1)[C@H]1C(C)(C)[C@H](Oc2ccc(C#N)c(Cl)c2)C1(C)C

stdout:
1: 50 to 79%; 2: 25 to 49%; 3: > 80%; 4: < 25%; 5: 25 to 49%; 6: 25 to 49%

Value source: patent US20230091225A1
